Measured values drawn from patent US4704462A for this set.

# assay.system: PAF Receptor (Oryctolagus cuniculus, UniProt G1TEI7)
# Construct: from tissue
# Sequence (G1TEI7 1-342): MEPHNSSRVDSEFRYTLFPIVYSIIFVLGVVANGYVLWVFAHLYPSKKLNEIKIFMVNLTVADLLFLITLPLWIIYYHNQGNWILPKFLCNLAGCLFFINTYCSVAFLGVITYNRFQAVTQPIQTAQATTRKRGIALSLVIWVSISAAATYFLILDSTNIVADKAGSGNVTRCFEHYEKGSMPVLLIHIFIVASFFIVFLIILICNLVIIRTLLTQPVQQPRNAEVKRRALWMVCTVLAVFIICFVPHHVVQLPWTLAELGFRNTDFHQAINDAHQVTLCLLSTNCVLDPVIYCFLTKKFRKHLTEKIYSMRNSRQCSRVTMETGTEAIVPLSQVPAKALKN
# protocol.details: % Inhibition of PAF Receptor (published bioassay, Table I)
# Assay type: binding
# particulars: Dose 1 μM
measurement.kind: inhibition at 1 µM (%)

For orientation, consider the following solved cases.
- compound: "C=CCC1=C[C@@]2(OCC)C(=CC1=O)O[C@H](c1ccc(OC)c(OC)c1)[C@@H]2C"
  assay.system: "PAF Receptor (Oryctolagus cuniculus, UniProt G1TEI7)"
  inhibition at 1 µM (%): 68
- compound: "CCCC1=C[C@]2(OC)C(=CC1=O)O[C@H](c1ccc(OC)c(OC)c1)[C@@H]2C (single isomer, unassigned)"
  assay.system: "PAF Receptor (Oryctolagus cuniculus, UniProt G1TEI7)"
  inhibition at 1 µM (%): 31

A: C=CCC1=C2OC(c3ccc(OC)c(OC)c3)C(C)C2(OC)C=CC1=O (centres unmarked)
B: C=CCC1=C[C@]2(OCC)C(=CC1=O)O[C@H](c1ccc(OC)c(OC)c1)[C@@H]2C
Query: Sorting ascending by inhibition at 1 µM, which comes first: A or B ? # answer = label of selected item
Response: A
